- measurement-target: Somatostatin receptor 2 (SSTR2) (human), P30874
- Sequence (P30874 whole entry): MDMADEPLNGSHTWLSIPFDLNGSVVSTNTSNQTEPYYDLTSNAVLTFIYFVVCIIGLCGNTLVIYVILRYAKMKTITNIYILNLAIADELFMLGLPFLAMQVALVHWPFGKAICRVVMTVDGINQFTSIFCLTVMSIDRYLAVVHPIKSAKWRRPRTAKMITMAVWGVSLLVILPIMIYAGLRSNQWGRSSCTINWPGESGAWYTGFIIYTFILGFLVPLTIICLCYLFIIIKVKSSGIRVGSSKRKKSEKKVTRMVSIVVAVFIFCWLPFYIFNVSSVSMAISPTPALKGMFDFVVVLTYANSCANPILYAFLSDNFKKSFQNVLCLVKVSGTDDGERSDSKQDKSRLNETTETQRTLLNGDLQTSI
- method-summary: competition with 125I-Tyr11 SST14
- study-conditions: L-mesityl alanine (Msa) in place of Phe5; D-Trp at position 7; disulfide bridge between the two cysteines
measured-quantity: IC50 (nM)
// note: answer is a bare numeric in nM

[Q] What IC50 value was documented for this binder, PCKNFFWKTFTSCK [Cortistatin analogue 4] ?
[A] 9.8
